Just for reference, patent US6063926A is where these values come from.

target: UniProt:P21452; assay: neurokinin receptor binding assay, NK2 (Ki); conditions: read-out: Ki (NK2)
Sequence (P21452 whole entry): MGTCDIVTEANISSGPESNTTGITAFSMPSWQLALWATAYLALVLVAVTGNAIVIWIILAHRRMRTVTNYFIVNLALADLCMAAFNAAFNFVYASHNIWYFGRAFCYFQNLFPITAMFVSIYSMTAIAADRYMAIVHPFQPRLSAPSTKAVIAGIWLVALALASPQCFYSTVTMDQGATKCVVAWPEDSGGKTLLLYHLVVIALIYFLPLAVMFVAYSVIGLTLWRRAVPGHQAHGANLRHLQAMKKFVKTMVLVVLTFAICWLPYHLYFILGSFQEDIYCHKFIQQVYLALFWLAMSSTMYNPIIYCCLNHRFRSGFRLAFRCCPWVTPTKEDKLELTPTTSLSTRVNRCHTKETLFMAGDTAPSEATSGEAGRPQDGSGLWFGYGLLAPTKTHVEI
pKi: −log10 of the molar value.
EXPERIMENTAL READOUT: pKi

# example entries with known answers
{"columns": ["COMPOUND", "pKi"],
 "data": [
  ["CNC(=O)C[C@H]1CCCN(C2CCN(CC[C@@H](C(CN(C)C(=O)c3cc(Cl)cc(Cl)c3)=NOC)c3ccc(Cl)c(Cl)c3)CC2)C1=O [Example 13B]", 9.52],
  ["CNC(=O)CC1CCCN(C2CCN(CCC(C(CN(C)C(=O)c3cc(Cl)cc(Cl)c3)=NOCC#N)c3ccc(Cl)c(Cl)c3)CC2)C1=O (stereo not drawn) [Example 15B]", 9.10],
  ["CON=C(CN(C)C(=O)c1cc(Cl)cc(Cl)c1)C(CCN1CCC(N2CCCC(CC(=O)N3CC(O)C3)C2=O)CC1)c1ccc(Cl)c(Cl)c1 (stereo not drawn) [Example 12E]", 9.70],
  ["CON=C(CN(C)C(=O)c1cc(Cl)cc(Cl)c1)C(CCN1CCC(c2ccccc2[S+](C)[O-])CC1)c1ccc(Cl)c(Cl)c1 (stereo not drawn)", 9.00]
]}

a: CNC(=O)CC1CCCN(C2CCN(CCC(C(CN(C)C(=O)c3cc(Cl)cc(Cl)c3)=NOCC(N)=NO)c3ccc(Cl)c(Cl)c3)CC2)C1=O (stereo not drawn) [Example 15F]
b: CNC(=O)CC1CCCN(C2CCN(CCC(C(CN(C)C(=O)c3cc(C)cc(C)c3)=NOC)c3ccc(Cl)c(Cl)c3)CC2)C1=O (stereo not drawn)
### Prompt Which record would sort first by descending pKi, a or b ? Reply with the label of the item you choose.
### Response b

I: CONC(=O)CON=C(CN(C)C(=O)c1cc(C)cc(C)c1)C(CCN1CCC(N2CCCC(CC(=O)N(C)C)C2=O)CC1)c1ccc(Cl)c(Cl)c1 (stereo not drawn) [Example 19E]
II: CN(CC(=NO)C(CCN1CCC(N2CCCCC2=O)CC1)c1ccc(Cl)c(Cl)c1)C(=O)c1cc(Cl)cc(Cl)c1 (stereo not drawn) [Example 17A]
III: CN(C)C(=O)CC1CCCN(C2CCN(CCC(C(CN(C)C(=O)c3cc(Cl)cc(Cl)c3)=NOCC(N)=NO)c3ccc(Cl)c(Cl)c3)CC2)C1=O (stereo not drawn) [Example 14D]
IV: CON=C(CN(C)C(=O)c1cc(Cl)cc(Cl)c1)C(CCN1CCC(N2CCCC(CC(=O)N3CCC(O)CC3)C2=O)CC1)c1ccc(Cl)c(Cl)c1 (stereo not drawn) [Example 12L]
### Prompt Falling order of pKi, please. Answer format: the labels, ordered as requested.
### Response III, IV, I, II

A: CN(CC(=NOCCCS(=O)(=O)O)C(CCN1CCC(N2CCCCC2=O)CC1)c1ccc(Cl)c(Cl)c1)C(=O)c1cc(Cl)cc(Cl)c1 (stereo not drawn) [Example 17K]
B: CNC(=O)C[C@H]1CCCN(C2CC[N+]([O-])(CC[C@@H](C(CN(C)C(=O)c3cc(Cl)cc(Cl)c3)=NOC)c3ccc(Cl)c(Cl)c3)CC2)C1=O (stereo partly drawn) [Example 13H]
### Prompt Which record would sort first by descending pKi, A or B ? Reply with the label of the item you choose.
### Response B
